- Experimental System: LasB N68S, T120I, A122T, S241G, S436L (Pseudomonas aeruginosa, UniProt P14756, S241G/S436L)
- Construct: Most changes were identified in the mature peptide, however some occurred in the propeptide domain; endogenous in cells
- Sequence (P14756 198-498, looked up, stated change not applied): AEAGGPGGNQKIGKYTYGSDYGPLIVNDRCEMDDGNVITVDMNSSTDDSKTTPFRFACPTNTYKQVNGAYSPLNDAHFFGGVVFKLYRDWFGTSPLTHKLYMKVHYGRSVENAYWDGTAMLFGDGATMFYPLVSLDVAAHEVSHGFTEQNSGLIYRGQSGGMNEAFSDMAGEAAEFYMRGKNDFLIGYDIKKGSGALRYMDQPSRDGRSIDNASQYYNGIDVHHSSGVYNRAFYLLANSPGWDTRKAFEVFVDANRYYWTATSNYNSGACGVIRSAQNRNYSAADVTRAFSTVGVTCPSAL
- Procedure Summary: LasB variant inhibition, culture supernatant: N68S, T120I, A122T, S241G, S436L
Assign pIC50 to each entry below.
Remember, pIC50 is on a log scale: it is -log10 of the molar concentration.

Request: Given the entry COc1cc2sc(CNC(=O)C3(CC(=O)O)Cc4cc(F)c(F)cc4C3)nc2cc1OCCC[N+](C)(CCO)CCO [Compound 16] , report its measured pIC50.
Response: 6.60

Request: Similarly, COc1cc2sc(CNC(=O)C3(CC(=O)O)Cc4ccccc4C3)nc2cc1OCCC[N+](C)(C)C [Compound 12] ?
Response: 6.57

* * *

- Procedure Summary: Mouse pharmacokinetics, plasma
- Type: in vivo
- Conditions: female, ICR (CD-1), plasma, single 10 mg/kg IV dose, read-out: plasma AUClast
Result Type: AUC(0-t) (µg·h/mL)
Entry rule: numbers only, all in µg·h/mL.

Request: Given the entry COc1cc2sc(CNC(=O)C3(CC(=O)O)Cc4ccccc4C3)nc2cc1OCCC[N+](C)(C)C , report its measured AUC(0-t).
Response: 610

Request: Similarly, COc1cc2sc(CNC(=O)C3(CC(=O)O)Cc4cc(F)c(F)cc4C3)nc2cc1OCCC[N+](C)(CCO)CCO ?
Response: 517

* * *

Assign C0 to each entry below.
- Procedure Summary: Mouse pharmacokinetics, lung epithelial lining fluid (ELF)
- Assay type: in vivo
- Conditions: female, ICR (CD-1), lung epithelial lining fluid (ELF), single 10 mg/kg IV dose, epithelial lining fluid
Entry rule: numbers only, all in ng/mL.

Request: Given the entry COc1cc2sc(CNC(=O)C3(CC(=O)O)Cc4cc(F)c(F)cc4C3)nc2cc1OCCC[N+](C)(CCO)CCO , report its measured C0.
Response: 2700

Request: Similarly, COc1cc2sc(CNC(=O)C3(CC(=O)O)Cc4ccccc4C3)nc2cc1OCCC[N+](C)(C)C ?
Response: 2700

* * *

- Procedure Summary: Cytotoxicity screening (MTS), BSMC
- Format: cell-based
- Conditions: human, bronchial smooth muscle cells (BSMC)
Result Type: IC50 at 24 h

Request: Given the entry COc1cc2sc(CNC(=O)C3(CC(=O)O)Cc4cc(F)c(F)cc4C3)nc2cc1OCCC[N+](C)(CCO)CCO , report its measured IC50 at 24 h.
Response: > 100 µM

Request: Similarly, COc1cc2sc(CNC(=O)C3(CC(=O)O)Cc4ccccc4C3)nc2cc1OCCC[N+](C)(C)C ?
Response: > 100 µM

* * *

- Procedure Summary: Plasma protein binding by equilibrium dialysis
- Type: in vitro ADME
- Conditions: mouse plasma, 10 μM compound; read-out: PPB (mouse) % bound (converted)
Assign fraction unbound at 4 h, 10 μM to each entry below.
Please give only the number in your answer, with no unit.

Request: Given the entry COc1cc2sc(CNC(=O)C3(CC(=O)O)Cc4ccccc4C3)nc2cc1OCCC[N+](C)(C)C , report its measured fraction unbound at 4 h, 10 μM.
Response: 0.24

Request: Similarly, COc1cc2sc(CNC(=O)C3(CC(=O)O)Cc4cc(F)c(F)cc4C3)nc2cc1OCCC[N+](C)(CCO)CCO ?
Response: 0.18
